Tested on: MOLM-13 cells
assayComment: MOLM-13 cell proliferation assay (alamarBlue)
Type: cell-based
conditionSummary: inhibition of cell proliferation, 96 hours, human AML cell line
resultType: IC50 (nM)
Please respond with the number in nM and leave the unit unwritten.

In the examples that follow, each entry is paired with its recorded IC50.
Input: Find the measured IC50 of "COc1ccc(CN2c3cc(Nc4ccc(S(=O)(=O)N5CCN(C)CC5)cc4)ccc3N(C)C(=O)[C@H]2C)cc1" and report it.
Output: 145

Input: Find the measured IC50 of "C[C@@H]1C(=O)N(C)c2ccc(Nc3ccc(C(=O)N4CCOCC4)cc3)cc2N1C1CCOCC1" and report it.
Output: 1950

Input: Find the measured IC50 of "CC(C)NC(=O)c1ccc(Nc2ccc3c(c2)N(C2CCCC2)[C@H](C)C(=O)N3C)cc1" and report it.
Output: 1440

Input: Find the measured IC50 of "C[C@@H]1C(=O)N(C)c2ccc(Nc3ccc(S(=O)(=O)N(C)C)cc3)cc2N1C1CCCC1" and report it.
Output: 289

Input: Find the measured IC50 of "CC(=O)N1CCC(NC(=O)c2ccc(Nc3ccc4c(c3)N(C3CCOCC3)[C@H](C)C(=O)N4C)cc2)CC1" and report it.
Output: 3450

Further cases:
Input: Find the measured IC50 of "C[C@@H]1C(=O)N(C)c2ccc(Nc3ccc(C(=O)NC4CCN(C)CC4)cc3)cc2N1C1CCCC1" and report it.
Output: 356

Input: Find the measured IC50 of "C[C@@H]1C(=O)N(C)c2ccc(Nc3ccc(C(=O)NC4CCN(C)CC4)cc3)cc2N1C1CCCCCC1" and report it.
Output: 1260

* * *

testTarget: BRD4 Bromo Domain 2 [BRD4(2)] (Homo sapiens, UniProt O60885)
Construct: N-terminally His6-tagged BRD4(2) (amino acids 357-445); made in house; host or cells: E. coli
assayComment: BRD4(2)/acetylated peptide H4 binding assay (TR-FRET)
conditionSummary: inhibition of interaction between His6-tagged BRD4(2) (amino acids 357-445) and acetylated histone H4 peptide
Reported pIC50 values are given for each entry in this list.
Notebook: values listed as pIC50 are -log10 of the concentration (mol/L).

In the examples that follow, each entry is paired with its recorded pIC50.
Input: Given "C[C@@H]1C(=O)N(C)c2ccc(Nc3ccc(C(=O)NC4CC4)cc3)cc2N1Cc1ccccc1" , report its pIC50 on BRD4 Bromo Domain 2 [BRD4(2)] (Homo sapiens, UniProt O60885).
Output: 7.19

Input: Given "C[C@@H]1C(=O)N(C)c2ccc(Nc3ccc(S(=O)(=O)N(C)C)cc3)cc2N1C1CCCC1" , report its pIC50 on BRD4 Bromo Domain 2 [BRD4(2)] (Homo sapiens, UniProt O60885).
Output: 7.07

Input: Given "COc1ccc(CN2c3cc(Nc4ccc(C(=O)NCCN5CCN(C)CC5)cc4)ccc3N(C)C(=O)[C@H]2C)cc1" , report its pIC50 on BRD4 Bromo Domain 2 [BRD4(2)] (Homo sapiens, UniProt O60885).
Output: 7.27

Input: Given "C[C@@H]1C(=O)N(C)c2ccc(Nc3ccc(C(=O)NC4CC4)cc3)cc2N1C1CCCC1" , report its pIC50 on BRD4 Bromo Domain 2 [BRD4(2)] (Homo sapiens, UniProt O60885).
Output: 6.65

Input: Given "COc1ccc(CN2c3cc(Nc4ccc(S(=O)(=O)N(C)C)cc4)ccc3N(C)C(=O)[C@H]2C)cc1" , report its pIC50 on BRD4 Bromo Domain 2 [BRD4(2)] (Homo sapiens, UniProt O60885).
Output: 7.32

Further cases:
Input: Given "COc1ccc(CN2c3cc(Nc4ccc(S(=O)(=O)N5CCN(C(C)C)CC5)cc4)ccc3N(C)C(=O)[C@H]2C)cc1" , report its pIC50 on BRD4 Bromo Domain 2 [BRD4(2)] (Homo sapiens, UniProt O60885).
Output: 7.14

Input: Given "C[C@@H]1C(=O)N(C)c2ccc(Nc3ccc(C(=O)N4CCOCC4)cc3)cc2N1C1CCOCC1" , report its pIC50 on BRD4 Bromo Domain 2 [BRD4(2)] (Homo sapiens, UniProt O60885).
Output: 6.38
